assay: NCI Yeast Anticancer Drug Screen. Data for the rad18 strain (AID 177); details: S. cerevisiae rad18 mutant growth inhibition; at 1.2 µM
This is part of a sample that, as a whole, favours compounds with a hit. Of some 79,000 tested, about 15% had one in any assay. Calls of active or inactive are those of the source. Cut-off read from the data, not from the text of the source: active = growth inhibition above about 70%; inactive = the rest.
Respond using exactly one of the listed classes: label 1 = active, label 0 = inactive

Sample answers from the record:
>>> print(df.to_string())
                                   compound    label
0  O=C(Cc1csc2[n+]1C(=O)/C(=C/c1ccc(Cl)cc1)S2)Nc1ccccc1  label 0
1  NCCNc1ccc(NCCN)c2c1C(=O)c1c(O)ccc(O)c1C2=O  label 0

Ask: Look up the recorded call for "O=[N+]([O-])c1cccc([N+](=O)[O-])c1S(=O)(=O)c1ccccc1" in this test.
Result: label 0
